- System: Citrobacter freundii
- TEST DETAILS: Antibacterial activity against Citrobacter freundii ATCC 43864 after 18 hrs by agar dilution method
- Format: functional
- EXPERIMENTAL SETUP: ATCC 43864, 18 h

COMPOUND	MIC
CNC(=N)NCCC/C=C/CCC[C@H](C)C[C@H](C)[C@H]1OC(=O)[C@H](C)[C@H](O)/C=C/[C@H](C)[C@H](O)C[C@H](O)[C@H](C)[C@@H](O)CC[C@H](C)[C@H](O)CC(O)[C@H](O)[C@@H](O)C[C@H](O)C[C@@H](O)C[C@H](O)C[C@@H](O)[C@H](C)[C@H](O)/C=C/C=C/[C@@H]1C (stereo partly specified)	> 64 µg/mL
